Reported IC50 on human PDE10A2 (Homo sapiens (Human)) for assorted molecules, compiled from publications.
observed-property: IC50 (nM)

O=C(Nc1cc(-c2ccccn2)nn1C1CCOCC1)c1nc(C2CC2)ccc1Nc1cncnc1    1
Cc1cnc(C)n2nc(/C=C/c3nc(N4CCC4)nn3C)nc12    74.4
O=C(Nc1cc(-c2ccccn2)no1)c1nc(C2CC2)ccc1Nc1cncnc1    4
Cc1ncc(C)n2nc(CCc3c[nH]c(-c4ccccc4)n3)nc12    4.2
Nc1ncnc2c1nnn2[C@@H]1CCCOC1    19000
Nc1ncnc2c1nnn2C1CCCCC1F (single isomer, unassigned)    12200
Cc1ncc(C)n2nc(CCc3cn4c(n3)-c3ccccc3C4)nc12    0.4
COc1cc2ncnc(N3CCNC(c4cc(OC)c(OC)c(OC)c4)C3)c2cc1OC (stereo not drawn)    180
Cc1cc(C)n2cc(/C=C\c3ccc4ccccc4n3)nc2n1    240
Cn1ncc(NC(=O)c2nc(C3CC3)cnc2Nc2cncnc2)c1C(=O)N1CC(F)(F)C1    23.3
Cn1ncc(C(=O)N2CCOCC2c2cccnc2)c1C(=O)Nc1ccn2cc(-c3ccccc3)nc2n1 (stereo not drawn)    117
O=C(Nc1ccn(-c2ccncc2)n1)c1nc(C2CC2)ccc1Nc1cncnc1    10
Cc1ncc(C)n2nc(CCc3ccc4cc(C#N)c(Cl)cc4n3)nc12    59
O=C(NC1CC1)c1nocc1NC(=O)c1nc(C2CC2)cnc1Nc1cncnc1    6.2
O=C1N([C@H]2C[C@H](Nc3nc4ccccc4s3)C2)c2ncccc2C12CCOCC2    0.14
Cc1nc2ccc(CCc3nc(N4CCCC4)nn3C)nn2c1CO    194
CCn1nc(-c2ccccn2)cc1NC(=O)c1nc(C2CC2)ccc1Nc1cncnc1    5
O=C(NC1COC1)c1ccncc1NC(=O)c1nc(C2CC2)cnc1Nc1cncnc1    2.6
Cc1nn2ccc(CCc3nc(N4CCCC4)nn3C)nc2c1C    2.1
COc1cc(CCc2nc3cccc(C)n3n2)nc2ccccc12    190
Cc1cnc(C)n2nc(CCc3nc(N4CCCC4=O)cn3CC3CC3)nc12    14.8
CCc1nc2ccc(OCc3nc(-c4ccccc4)cn3C)nn2c1C    264
COc1ccnc(N[C@H]2C[C@H](N3C(=O)C(C)(C)c4cccnc43)C2)n1    13
Cc1nn2ccc(OCc3nc(-c4ccccc4)cn3C)nc2c1C    3.4
CC(C)(O)CNC(=O)c1cc(C(F)(F)F)ccc1NC(=O)c1nc(C2CC2)cnc1Nc1cncnc1    2.3
